- testedSystem: p70S6K (Homo sapiens, UniProt P23443)
- Sequence (P23443 whole entry): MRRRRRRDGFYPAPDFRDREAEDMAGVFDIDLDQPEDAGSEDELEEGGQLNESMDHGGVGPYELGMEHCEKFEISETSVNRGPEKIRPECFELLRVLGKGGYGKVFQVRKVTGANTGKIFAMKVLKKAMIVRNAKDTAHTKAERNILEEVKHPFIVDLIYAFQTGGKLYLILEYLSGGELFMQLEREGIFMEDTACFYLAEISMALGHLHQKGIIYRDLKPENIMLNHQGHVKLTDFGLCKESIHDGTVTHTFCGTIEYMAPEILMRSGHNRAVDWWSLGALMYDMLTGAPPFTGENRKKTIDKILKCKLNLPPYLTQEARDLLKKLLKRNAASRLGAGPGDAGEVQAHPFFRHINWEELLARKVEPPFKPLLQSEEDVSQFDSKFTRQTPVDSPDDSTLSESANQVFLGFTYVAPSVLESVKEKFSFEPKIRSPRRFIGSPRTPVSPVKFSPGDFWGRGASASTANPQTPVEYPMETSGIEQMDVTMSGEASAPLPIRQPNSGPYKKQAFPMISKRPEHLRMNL
- method: Luciferase-coupled chemiluminescence kinase assay (ATP consumption)
- Assay type: biochemical
- studyConditions: Table 1; class symbols per key
Recorded IC50 by entry

Cc1c(NCCN2CCCC2)cc(OC(F)F)cc1N1CCN(c2ncnc3[nH]nc(Br)c23)CC1 = < 100 nM

Ask: Retrieve IC50 measured for Clc1ccc(N2CCN(c3ncnc4[nH]nc(Br)c34)CC2)c(Cl)c1 and print it.
Result: 100 to 1000 nM

Ask: Retrieve IC50 measured for Cc1c(NCCN(C)C)cc(OCC(C)C)cc1N1CCN(c2ncnc3[nH]nc(Br)c23)CC1 and print it.
Result: < 100 nM

Ask: Retrieve IC50 measured for Cc1c(NCCN2CCCC2)cc(COCC(F)(F)F)cc1N1CCN(c2ncnc3[nH]nc(Br)c23)CC1 and print it.
Result: < 100 nM

Ask: Retrieve IC50 measured for CCc1n[nH]c2ncnc(N3CCN(c4cc(Br)cc(N)c4C)CC3)c12 and print it.
Result: < 100 nM

Ask: Retrieve IC50 measured for Clc1cc(Cl)cc(N2CCN(c3ncnc4[nH]nc(Br)c34)CC2)c1 and print it.
Result: 100 to 1000 nM

Ask: Retrieve IC50 measured for Clc1ccc(-c2ccccc2OCCN2CCCC2)cc1N1CCN(c2ncnc3[nH]nc(Br)c23)CC1 and print it.
Result: < 100 nM

Ask: Retrieve IC50 measured for Cc1c(OCCN2CCN(C)CC2)cc(Cl)cc1N1CCN(c2ncnc3[nH]nc(C(F)(F)F)c23)CC1 and print it.
Result: < 100 nM

---

- testedSystem: p70S6K (Homo sapiens)
- method: Luciferase-coupled chemiluminescence kinase assay (ATP consumption)
- Format: biochemical
pIC50: −log10 of the molar value.
Recorded pIC50 by entry

Examples with answers:
COC(CCC(F)(F)F)(OC)c1cc(NCCN2CCCC2)c(C)c(N2CCN(c3ncnc4[nH]nc(Br)c34)CC2)c1 = > 7.00
Cc1nc(N2CCN(c3cc(Cl)ccc3C)CC2)c2cn[nH]c2n1 = 5.00 to 6.00
COc1ccccc1N1CCN(c2ncnc3[nH]ccc23)CC1 = 6.00 to 7.00
Cc1ccc(Cl)cc1N1CCN(c2ncnc3[nH]nc(Nc4ccccc4)c23)CC1 = 5.00 to 6.00
CCc1n[nH]c2ncnc(N3CCN(c4cc(Cl)cc(N5CCOCC5)c4C)CC3)c12 = 6.00 to 7.00
Clc1cccc(N2CCN(c3ncnc4[nH]cnc34)CC2)c1 = 6.00 to 7.00
c1ccc(N2CCN(c3ncnc4[nH]ccc34)CC2)cc1 = 6.00 to 7.00
Cc1ccccc1N1CCN(c2ncnc3[nH]ccc23)CC1 = 6.00 to 7.00

Ask: Retrieve pIC50 measured for CCc1n[nH]c2ncnc(N3CCN(c4cccc(Cl)c4)C(C(=O)O)C3)c12 (stereo not drawn) and print it.
Result: 6.00 to 7.00

---

- testedSystem: AktK (Homo sapiens, UniProt P31749)
- Sequence (P31749 whole entry): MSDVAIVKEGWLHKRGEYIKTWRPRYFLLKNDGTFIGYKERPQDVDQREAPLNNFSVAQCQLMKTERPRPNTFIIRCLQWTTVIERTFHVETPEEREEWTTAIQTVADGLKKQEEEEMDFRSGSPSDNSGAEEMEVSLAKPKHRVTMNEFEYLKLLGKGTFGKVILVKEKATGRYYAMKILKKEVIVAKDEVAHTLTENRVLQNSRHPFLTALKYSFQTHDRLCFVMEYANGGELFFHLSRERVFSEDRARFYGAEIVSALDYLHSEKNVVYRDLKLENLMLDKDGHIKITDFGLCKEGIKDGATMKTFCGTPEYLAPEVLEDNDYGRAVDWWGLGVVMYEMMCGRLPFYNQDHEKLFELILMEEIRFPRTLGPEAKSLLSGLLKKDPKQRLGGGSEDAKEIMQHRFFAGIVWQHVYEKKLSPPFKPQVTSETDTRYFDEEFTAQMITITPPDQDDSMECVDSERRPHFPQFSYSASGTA
- method: Luciferase-coupled chemiluminescence kinase assay (ATP consumption)
- Assay type: biochemical
- studyConditions: read-out: AKT-1 IC50
Recorded IC50 by entry

Examples with answers:
c1ccc(N2CCN(c3ncnc4[nH]cnc34)CC2)cc1 = ≥ 10 µM
CCc1n[nH]c2ncnc(N3CCN(c4cc(Cl)ccc4C)CC3)c12 = 1 to 10 µM
CCc1nc(N2CCN(c3cc(Cl)ccc3C)CC2)c2cn[nH]c2n1 = 1 to 10 µM
CCc1n[nH]c2ncnc(N3CCN(c4cc(Cl)cc(CO)c4OC)CC3)c12 = 1 to 10 µM
Fc1ccc(-c2ccc(Cl)c(N3CCN(c4ncnc5[nH]nc(Br)c45)CC3)c2)c(OCCN2CCCC2)c1 = < 0.1 µM
Cc1ccc(Cl)cc1N1CCN(c2ncnc3[nH]nc(C(C)C)c23)CC1 = 1 to 10 µM
Cc1ccc(Cl)cc1N1CCN(c2ncnc3[nH]nc(-c4cccc(OCc5ccccc5)c4)c23)CC1 = 1 to 10 µM

Ask: Report its IC50 with AktK (Homo sapiens, UniProt P31749) as the test system: Cc1ccc(Cl)cc1N1CCN(c2ncnc3[nH]nc(-c4ccc(F)cc4)c23)CC1
Result: 1 to 10 µM

---

- testedSystem: p70S6K (Homo sapiens, UniProt P23443)
- method: Luciferase-coupled chemiluminescence kinase assay (ATP consumption)
- Type: biochemical
- studyConditions: Table 1; class symbols per key
Recorded IC50 by entry

Examples with answers:
CCc1n[nH]c2ncnc(N3CCN(c4cc(Cl)cc(OCCCN5CCCC5)c4C)CC3)c12 = < 100 nM
CCN(CC)CCOc1cc(Cl)cc(N2CCN(c3ncnc4[nH]nc(C(F)(F)F)c34)CC2)c1C = < 100 nM
COC(=O)c1cc(NCCN2CCCC2)c(C)c(N2CCN(c3ncnc4[nH]nc(Br)c34)CC2)c1 = < 100 nM
Cc1ccc(C(=O)Nc2ccccc2)cc1N1CCN(c2ncnc3[nH]nc(Br)c23)C[C@@H]1CO = < 100 nM
COc1nccnc1N1CCN(c2ncnc3[nH]nc(Br)c23)CC1 = 100 to 1000 nM
Cc1c(NCCN(C)C)cc(OCC(F)(CF)CF)cc1N1CCN(c2ncnc3[nH]nc(Br)c23)CC1 = < 100 nM

Ask: Retrieve IC50 measured for CCN(CC)CCOc1cccc(N2CCN(c3ncnc4[nH]nc(Br)c34)CC2)c1 and print it.
Result: 100 to 1000 nM

Ask: Retrieve IC50 measured for FC(F)(F)c1ccccc1N1CCN(c2ncnc3[nH]nc(Br)c23)CC1 and print it.
Result: 100 to 1000 nM

Ask: Retrieve IC50 measured for Cc1c(NCCN2CCCC2)cc(OCC2CCCCC2)cc1N1CCN(c2ncnc3[nH]nc(Br)c23)CC1 and print it.
Result: < 100 nM

Ask: Retrieve IC50 measured for O=C1COc2ccc(-c3ccnc(N4CCN(c5ncnc6[nH]nc(Br)c56)CC4)n3)cc2N1 and print it.
Result: 1000 to 10000 nM

Ask: Retrieve IC50 measured for Cc1c(NCCN2CCCC2)cc(C(=O)c2ccccc2)cc1N1CCN(c2ncnc3[nH]nc(Br)c23)CC1 and print it.
Result: < 100 nM

Ask: Retrieve IC50 measured for Cc1ccc(C(=O)Nc2ccccc2)cc1N1CCN(c2ncnc3[nH]nc(Br)c23)C[C@@H]1C and print it.
Result: < 100 nM

Ask: Retrieve IC50 measured for Cc1c(CCCN2CCCC2)cc(Cl)cc1N1CCN(c2ncnc3[nH]ncc23)CC1 and print it.
Result: < 100 nM

Ask: Retrieve IC50 measured for COc1cccc(N2CCN(c3ncnc4[nH]nc(Br)c34)CC2)c1 and print it.
Result: < 100 nM

Ask: Retrieve IC50 measured for Cc1c(OCC2CCN(C)CC2)cc(Cl)cc1N1CCN(c2ncnc3[nH]nc(Br)c23)CC1 and print it.
Result: < 100 nM

Ask: Retrieve IC50 measured for Cc1c(NCCN2CCCC2)cc(-c2ccccc2)cc1N1CCN(c2ncnc3[nH]nc(Br)c23)CC1 and print it.
Result: < 100 nM

Ask: Retrieve IC50 measured for Cc1c(NCCN2CCCC2)cc(OCC(F)(CF)CF)cc1N1CCN(c2ncnc3[nH]nc(C#CCO)c23)CC1 and print it.
Result: < 100 nM

---

- testedSystem: AktK (Homo sapiens)
- method: Luciferase-coupled chemiluminescence kinase assay (ATP consumption)
- Assay type: biochemical
- studyConditions: Table 1; class symbols per key; read-out: AKT-1 IC50
property: IC50

Examples with answers:
COc1ccc(N2CCN(c3ncnc4[nH]nc(Br)c34)CC2)c(OC)c1 [Entry 106] = ≥ 10000 nM
CCc1n[nH]c2ncnc(N3CCN(c4cc(Cl)cc(NCCN(C)CC)c4C)CC3)c12 [Entry 147] = 100 to 1000 nM
FC(F)(F)c1cnc(N2CCN(c3ncnc4[nH]nc(Br)c34)CC2)c(Cl)c1 [Entry 136] = ≥ 10000 nM
Clc1cccc(N2CCN(c3ncnc4[nH]nc(Br)c34)CC2)c1Cl [Entry 150] = ≥ 10000 nM
CCc1n[nH]c2ncnc(N3CCN(c4cccc(OC)c4C)CC3)c12 [Entry 145] = ≥ 10000 nM
Cc1c(NCCN(C)C)cc(C(=O)Nc2ccccc2)cc1N1CCN(c2ncnc3[nH]nc(Br)c23)CC1 [Entry 225] = < 100 nM
Cc1c(NCCN2CCCC2)cc(-c2ccccc2)cc1N1CCN(c2ncnc3[nH]nc(Br)c23)CC1 [Entry 231] = < 100 nM
Cc1ccc(N2CCN(c3ncnc4[nH]nc(Br)c34)CC2)cc1NCCN1CCCC1 [Entry 57] = 1000 to 10000 nM

Ask: Retrieve IC50 measured for Cc1c(CCCN2CCCC2)cc(Cl)cc1N1CCN(c2ncnc3[nH]ncc23)CC1 [Entry 59] and print it.
Result: 1000 to 10000 nM

Ask: Retrieve IC50 measured for Cc1c(OCCC2CCN(C)CC2)cc(Cl)cc1N1CCN(c2ncnc3[nH]nc(Br)c23)CC1 [Entry 89] and print it.
Result: < 100 nM

Ask: Retrieve IC50 measured for Cc1c(NCCN2CCCC2)cc(C(=O)N2CCCC2)cc1N1CCN(c2ncnc3[nH]nc(Br)c23)CC1 [Entry 201] and print it.
Result: 100 to 1000 nM
